Values compiled from paper PMC7305236.

test-target: U87 ACKR3 (Homo sapiens, UniProt P25106)
Construct: expressed in transfected cells
Sequence (P25106 whole entry): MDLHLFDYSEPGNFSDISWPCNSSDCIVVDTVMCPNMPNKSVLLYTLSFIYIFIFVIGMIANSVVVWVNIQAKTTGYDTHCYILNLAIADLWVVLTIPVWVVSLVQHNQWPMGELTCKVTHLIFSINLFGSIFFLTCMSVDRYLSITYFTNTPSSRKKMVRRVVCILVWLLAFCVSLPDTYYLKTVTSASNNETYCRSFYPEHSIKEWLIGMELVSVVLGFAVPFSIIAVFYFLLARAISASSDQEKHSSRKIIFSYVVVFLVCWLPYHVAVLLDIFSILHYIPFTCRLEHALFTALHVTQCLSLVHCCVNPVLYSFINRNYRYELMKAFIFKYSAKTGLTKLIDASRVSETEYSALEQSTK
assay-method-text: Figure 6c source data, U87 ACKR3
Assay type: cell-based
reported-conditions: Figure 6c inset, U87 ACKR3 + labelled peptide, titrated agonist not given, replicate 4
readout-type: EC50 (nM)

substance	val
H-MRRKFGGF-NH2 [LIH inverse]	71.7

----------
test-target: CCR2 (Homo sapiens)
Construct: expressed in transfected cells
Sequence (P41597 1-360 isoform P41597-2): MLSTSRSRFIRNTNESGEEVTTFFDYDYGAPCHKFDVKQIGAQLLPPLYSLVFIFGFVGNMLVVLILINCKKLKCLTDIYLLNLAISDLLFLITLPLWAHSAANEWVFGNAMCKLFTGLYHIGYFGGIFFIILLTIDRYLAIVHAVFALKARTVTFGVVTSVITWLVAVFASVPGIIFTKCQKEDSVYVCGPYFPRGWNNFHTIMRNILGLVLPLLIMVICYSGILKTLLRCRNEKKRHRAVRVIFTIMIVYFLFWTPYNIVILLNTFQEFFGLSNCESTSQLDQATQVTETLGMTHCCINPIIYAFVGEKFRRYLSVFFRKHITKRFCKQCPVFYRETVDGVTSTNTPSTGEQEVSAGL
assay-method-text: Figure S2a opioid peptide screen on chemokine receptors
Format: cell-based
Parameters: dose or concentration left out as unconfirmed
reported-conditions: replicate 2, read-out: CCR2 activity, ctrl+ = 100
readout-type: activation (%)

molecule	test-target	readout-type	unit-annotation	val
CC(C)C[C@H](NC(=O)[C@H](Cc1ccccc1)NC(=O)CNC(=O)CNC(=O)[C@@H](N)Cc1ccc(O)cc1)C(=O)N[C@@H](CCCN=C(N)N)C(=O)N[C@@H](CCCN=C(N)N)C(=O)N[C@@H](CCC(N)=O)C(=O)N[C@@H](Cc1ccccc1)C(=O)N[C@@H](CCCCN)C(=O)N[C@H](C(=O)N[C@H](C(=O)N[C@H](C(=O)O)[C@@H](C)O)C(C)C)C(C)C [Dynorphin B]	CCR2 (Homo sapiens)	activation	%	-2.18
CC(C)C[C@H](NC(=O)[C@H](CCCCN)NC(=O)[C@H](CCCN=C(N)N)NC(=O)[C@H](C)NC(=O)[C@H](CO)NC(=O)[C@H](CCCCN)NC(=O)[C@H](CCCN=C(N)N)NC(=O)[C@H](C)NC(=O)CNC(=O)[C@@H](NC(=O)[C@H](Cc1ccccc1)NC(=O)CNC(=O)CNC(=O)[C@@H](N)Cc1ccccc1)[C@@H](C)O)C(=O)N[C@@H](C)C(=O)N[C@@H](CC(N)=O)C(=O)N[C@@H](CCC(N)=O)C(=O)O [Nociceptin]	CCR2 (Homo sapiens)	activation	%	-3.09
CSCC[C@H](NC(=O)[C@H](Cc1ccccc1)NC(=O)CNC(=O)CNC(=O)[C@@H](N)Cc1ccc(O)cc1)C(=O)N[C@@H](CCCNC(=N)N)C(=O)N[C@@H](CCCNC(=N)N)C(=O)N[C@H](C(N)=O)C(C)C [Adrenorphin]	CCR2 (Homo sapiens)	activation	%	-1.07
